# Assay comment: Cell Viability - LYMP2-026 (AID 989);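 further: cells exposed to compound for 24 h at 37 °C; nearly all actives have a fitted effect of over 50% in size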
# Condition summary: LYMP2-026 lymphoblastoid cell viability, qHTS; series mostly up to 92.2 µM
Inconclusive results are not listed. Active and inactive are the calls of the source. The call rests on the fitted dose curve; in most records, active means well fitted cell-killing curve with a large enough effect; inconclusive means small, poorly fitted or top-dose-only effect; inactive means flat fitted curve, though single readings scatter.
Classes used: true for active, false for inactive

Chemical structure	Discrete label
Clc1ccc(C(c2ccc(Cl)cc2)C(Cl)Cl)cc1	false
CC/C(=C(\c1ccccc1)c1ccc(OCCN(C)C)cc1)c1ccc(O)cc1	true
O=[N+]([O-])c1cc(C(F)(F)F)cc([N+](=O)[O-])c1Cl	true
O=Nc1ccc(Nc2ccccc2)cc1	true
c1ccc2cc3c(cc2c1)-c1cccc2cccc-3c12	false
ClC1=C(Cl)C(Cl)(Cl)C(Cl)=C1Cl	true
CN(C)c1ccc(N=O)cc1	true
C[C@@H]1CC[C@@]2(OC1)O[C@H]1[C@@H](O)[C@H]3[C@@H]4CC[C@H]5C[C@@H](O[C@@H]6O[C@H](CO)[C@H](O[C@@H]7O[C@H](CO)[C@@H](O)[C@H](O[C@@H]8OC[C@@H](O)[C@H](O)[C@H]8O)[C@H]7O[C@@H]7O[C@H](CO)[C@@H](O)[C@H](O[C@@H]8O[C@H](CO)[C@@H](O)[C@H](O)[C@H]8O)[C@H]7O)[C@H](O)[C@H]6O)[C@H](O)C[C@]5(C)[C@H]4CC[C@]3(C)[C@H]1[C@@H]2C	true

---

# Subject of test: Glucocorticoid receptor (Homo sapiens) (UniProt P04150)
# Sequence (P04150 whole entry, looked up): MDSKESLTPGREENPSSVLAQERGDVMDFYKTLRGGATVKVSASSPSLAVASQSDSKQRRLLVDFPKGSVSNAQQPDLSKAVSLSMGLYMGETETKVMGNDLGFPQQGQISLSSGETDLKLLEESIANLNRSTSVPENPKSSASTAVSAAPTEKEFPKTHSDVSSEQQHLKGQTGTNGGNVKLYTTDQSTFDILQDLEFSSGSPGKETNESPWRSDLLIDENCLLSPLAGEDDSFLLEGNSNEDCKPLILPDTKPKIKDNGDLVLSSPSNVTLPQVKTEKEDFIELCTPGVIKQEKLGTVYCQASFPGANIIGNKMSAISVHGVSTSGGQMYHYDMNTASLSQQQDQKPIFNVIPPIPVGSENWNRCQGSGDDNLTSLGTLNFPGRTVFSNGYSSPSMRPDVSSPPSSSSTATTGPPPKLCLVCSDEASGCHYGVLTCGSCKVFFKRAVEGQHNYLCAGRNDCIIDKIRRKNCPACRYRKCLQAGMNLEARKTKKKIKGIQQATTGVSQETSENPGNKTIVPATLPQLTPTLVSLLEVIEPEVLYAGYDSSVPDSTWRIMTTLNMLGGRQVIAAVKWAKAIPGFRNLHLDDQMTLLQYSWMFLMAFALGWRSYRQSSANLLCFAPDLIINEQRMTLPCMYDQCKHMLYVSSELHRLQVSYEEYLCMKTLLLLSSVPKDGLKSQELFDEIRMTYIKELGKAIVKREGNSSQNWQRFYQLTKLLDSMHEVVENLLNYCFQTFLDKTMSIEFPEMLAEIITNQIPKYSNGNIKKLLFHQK
# Assay comment: qHTS assay for small molecule agonists of glucocorticoid receptor signaling (AID 588532);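 further: 100% = dexamethasone at 0.1 µM and 0% = DMSO only wells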
# Condition summary: HeLa MMTV-bla, beta-lactamase ratio, agonist, 18 h; stronger effect = higher value, percent of dexamethasone control, DMSO zero
Inconclusive results are not listed.
Here the recorded activation is given for each entry.
Recorded metric: activation (%)

> print(dat)
                                    molecule  endpoint.value
 1                   CC(C)(C#N)N=NC(C)(C)C#N            6.88
 2  ClC1=C(Cl)C2(Cl)C3C(Cl)C(Cl)CC3C1(Cl)C2(Cl)Cl (centres undefined)            17.3
 3                     O=C1C=CC(=O)c2ccccc21           0.432
 4            CCC[CH2][Sn]([CH2]CCC)[CH2]CCC           -13.3
 5     C=CC(=O)OCC(CC)(COC(=O)C=C)COC(=O)C=C           -13.7
 6  CC(C)C(=O)OCC(C)(C)C(OC(=O)C(C)C)C(C)C (centres undefined)           -2.67
 7  COC(=O)N(C(=O)N1COC2(C(=O)OC)Cc3cc(Cl)ccc3C2=N1)c1ccc(OC(F)(F)F)cc1 (centres undefined)            17.1
 8                             [CH3][Hg][Cl]           -4.13
 9               CNC(=O)/C=C(\C)OP(=O)(OC)OC           -1.15
10             c1cc[n+]2c(c1)-c1cccc[n+]1CC2            1.75
11  CCC[CH2][Sn]1([CH2]CCC)[O]C(=O)C=CC(=O)[O]1           -4.93
12                   COc1ccc(O)c(C(C)(C)C)c1             -14
13  C=CC1(C)OC(=O)N(c2cc(Cl)cc(Cl)c2)C1=O (centres undefined)           -11.4
14  O=C(NC(=O)c1c(F)cccc1F)Nc1ccc(OC(F)(F)C(F)OC(F)(F)F)c(Cl)c1 (centres undefined)           -15.7
15  CC(C)[C@@H](Nc1ccc(C(F)(F)F)cc1Cl)C(=O)OC(C#N)c1cccc(Oc2ccccc2)c1 (some centres undefined)           -3.97
16  COc1cc(OC)nc(NC(=O)NS(=O)(=O)c2ncccc2C(F)(F)F)n1           -18.1
17  COc1nn(C(=O)NS(=O)(=O)c2ccccc2OC(F)(F)F)c(=O)n1C           -3.65
18  CC1(C)CC/C(=C\c2ccc(Cl)cc2)C1(O)Cn1cncn1 (centres undefined)          -0.523
19  C#CCN1C(=O)COc2cc(F)c(N3C(=O)C4=C(CCCC4)C3=O)cc21           -6.94
20  CCc1cc(C)cc(CC)c1-c1c(OC(=O)C(C)(C)C)n2n(c1=O)CCOCC2          -0.342
21  CC(Oc1cc(Cl)c(Cl)cc1Cl)C(=O)O (centres undefined)          -0.156
22  C=C(C)C(=O)OCC(CC)CCCC (centres undefined)           -12.2
23  O=C(NC(=O)c1c(F)cccc1F)Nc1cc(Cl)c(OC(F)(F)C(F)F)c(Cl)c1            12.6
24         N#Cc1c[nH]cc1-c1cccc2c1OC(F)(F)O2            -6.3

---

# Assay comment: qHTS assay for small molecule antagonists of peroxisome proliferator-activated receptor delta signaling (AID 588535);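 further: cells co-treated with a PPAR-delta agonist as stimulator during compound exposure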
# Condition summary: HEK293T PPARd-UAS-bla, beta-lactamase FRET ratio, 18 h; 460 nm channel
Results filed as inconclusive are left out.
Here the recorded max response is given for each entry.
Recorded metric: max response (%)

> print(dat)
                                   molecule  unit.tag  endpoint.value
1           CCOP(=S)(OCC)SCn1nnc2ccccc2c1=O         %            7.16
2  C=CCOC(=O)C(C)(C)OC(=O)c1cc(-n2c(=O)cc(C(F)(F)F)n(C)c2=O)ccc1Cl         %            15.1
3      O=C(NC(=O)c1c(F)cccc1F)Nc1ccc(Cl)cc1         %           -32.8
4  CCOc1cc(C(C)(C)C)ccc1C1COC(c2c(F)cccc2F)=N1 (configuration not stated)         %           -21.7
5               COC(=O)/C=C(\C)OP(=O)(OC)OC         %           -21.6
6  CCOP(=O)(SC(C)CC)SC(C)CC (configuration not stated)         %           -10.9
7                           Nc1nc(N)nc(N)n1         %              16

---

# Subject of test: Nuclear receptor subfamily 1 group I member 2 (Rattus norvegicus) (UniProt Q9R1A7)
# Sequence (Q9R1A7 whole entry, looked up): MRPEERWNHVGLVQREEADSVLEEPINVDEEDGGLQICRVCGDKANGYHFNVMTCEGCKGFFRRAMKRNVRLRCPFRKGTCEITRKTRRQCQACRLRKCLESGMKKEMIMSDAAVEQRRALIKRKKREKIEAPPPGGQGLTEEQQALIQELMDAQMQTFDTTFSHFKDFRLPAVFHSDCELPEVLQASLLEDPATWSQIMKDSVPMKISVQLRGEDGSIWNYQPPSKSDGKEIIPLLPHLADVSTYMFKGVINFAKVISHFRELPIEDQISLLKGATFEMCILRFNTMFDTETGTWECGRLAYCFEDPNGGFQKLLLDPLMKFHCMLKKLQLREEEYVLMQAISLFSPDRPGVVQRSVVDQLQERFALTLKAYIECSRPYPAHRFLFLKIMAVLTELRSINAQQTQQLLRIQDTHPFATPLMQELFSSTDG
# Assay comment: qHTS assay for small molecule activators of the rat pregnane X receptor (rPXR) signaling pathway (AID 651751); further: 0% is about no effect
# Condition summary: rPXR reporter cells, luciferase (One-Glo), 24 h
Here the recorded max response is given for each entry.
Recorded metric: max response (%)

> print(dat)
                                   molecule  endpoint.value
1  CCCCCCCCCCCCC1=C(OC(C)=O)C(=O)c2ccccc2C1=O           0.383
2  CCc1cc(C)cc(CC)c1-c1c(OC(=O)C(C)(C)C)n2n(c1=O)CCOCC2            1.04
3                 N#CN=C1SCCN1Cc1ccc(Cl)nc1            2.62
4  CC(C)=CC1C(C(=O)OCc2coc(Cc3ccccc3)c2)C1(C)C (stereo unspecified)            7.41
5  COc1nc(C)nc(NC(=O)NS(=O)(=O)c2ccccc2CCC(F)(F)F)n1            1.14
6           CCCCOCN(C(=O)CCl)c1c(CC)cccc1CC            3.67

---

# Subject of test: Nuclear receptor subfamily 1 group I member 2 (Rattus norvegicus)
# Assay comment: qHTS assay for small molecule activators of the rat pregnane X receptor (rPXR) signaling pathway (AID 651751); further: 0% is about no effect
# Condition summary: rPXR reporter cells, luciferase (One-Glo), 24 h
The source made the active and inactive calls. How the calls were made is not given here.
Recorded metric: max response

> print(dat)
                                    molecule                           subject.of.test      endpoint.value
 1  CCCCC(CC)COC(=O)Cl (configuration not stated)  Nuclear receptor subfamily 1 group I member 2 (Rattus norvegicus)    4.58% (inactive)
 2                Nc1cnn(-c2ccccc2)c(=O)c1Cl  Nuclear receptor subfamily 1 group I member 2 (Rattus norvegicus)    4.89% (inactive)
 3  CC(O)CN(CC(C)O)CC(C)O (configuration not stated)  Nuclear receptor subfamily 1 group I member 2 (Rattus norvegicus)  -0.821% (inactive)
 4  CN(c1c(Br)cc(Br)cc1Br)c1c([N+](=O)[O-])cc([N+](=O)[O-])cc1C(F)(F)F  Nuclear receptor subfamily 1 group I member 2 (Rattus norvegicus)   -14.1% (inactive)
 5  CCCCC(CC)CO[N+](=O)[O-] (configuration not stated)  Nuclear receptor subfamily 1 group I member 2 (Rattus norvegicus)    1.62% (inactive)
 6                 [CH3][Sn]([Cl])([Cl])[Cl]  Nuclear receptor subfamily 1 group I member 2 (Rattus norvegicus)   -7.26% (inactive)
 7                        CNC(=O)O/N=C(\C)SC  Nuclear receptor subfamily 1 group I member 2 (Rattus norvegicus)  -0.197% (inactive)
 8                [CH3][Sn]([CH3])([Cl])[Cl]  Nuclear receptor subfamily 1 group I member 2 (Rattus norvegicus)   -0.47% (inactive)
 9  COc1cc(OC)nc(NC(=O)NS(=O)(=O)c2cc(NC=O)ccc2C(=O)N(C)C)n1  Nuclear receptor subfamily 1 group I member 2 (Rattus norvegicus)   -9.56% (inactive)
10  CNP(=O)(OC)Oc1ccc(C(C)(C)C)cc1Cl (configuration not stated)  Nuclear receptor subfamily 1 group I member 2 (Rattus norvegicus)    11.5% (inactive)
11  O=C1c2ccccc2C(=O)C1C(=O)C(c1ccccc1)c1ccc(Cl)cc1 (configuration not stated)  Nuclear receptor subfamily 1 group I member 2 (Rattus norvegicus)    10.4% (inactive)
12  CCNS(=O)(=O)C(F)(F)C(F)(F)C(F)(F)C(F)(F)C(F)(F)C(F)(F)C(F)(F)C(F)(F)F  Nuclear receptor subfamily 1 group I member 2 (Rattus norvegicus)    2.04% (inactive)
